The reader will find reported pEC50 values listed item by item below.
Tested on: HIV-1 mutant strain L100I
Assay: microbe, parasite or virus in culture
Assay type: cell-based
Conditions: Human immunodeficiency virus 1, MT4, read-out: EC50 L100I
Note on pEC50: it is the negative log10 of concentration, concentration in mol/L.

Cc1cc(C)cc(S(=O)(=O)c2c(C(=O)NCCCCNS(=O)(=O)c3ccc(Cl)cc3)[nH]c3ccc(Cl)cc23)c1 [R7L4]	7.13
Cc1cc(C)cc(S(=O)(=O)c2c(C(=O)NCCCCCNS(=O)(=O)c3ccc(Cl)cc3)[nH]c3ccc(Cl)cc23)c1 [R7L5]	7.21
Cc1cc(C)cc(S(=O)(=O)c2c(C(=O)NCCCNS(=O)(=O)c3ccc(Br)cc3)[nH]c3ccc(Cl)cc23)c1 [R6L3]	6.11

Any idea what its pEC50 is? The molecule is Cc1cc(C)cc(S(=O)(=O)c2c(C(=O)NCCNS(=O)(=O)c3ccc(C#N)cc3)[nH]c3ccc(Cl)cc23)c1 [R5L2] 6.11

Same for Cc1ccc(S(=O)(=O)NCCNC(=O)c2[nH]c3ccc(Cl)cc3c2S(=O)(=O)c2cc(C)cc(C)c2)cc1 [R1L2] 6.17

Further, for Cc1cc(C)cc(S(=O)(=O)c2c(C(=O)NCCCCCNS(=O)(=O)c3cccnc3)[nH]c3ccc(Cl)cc23)c1 [R10L5] ? 7.34

###

System: HIV-1 mutant strain L100I
Assay: microbe, parasite or virus in culture
Assay type: cell-based
Conditions: Human immunodeficiency virus 1, MT4, read-out: EC50 L100I
pEC50: −log10 of the molar value.
Assign class by pEC50: not lower than 7 means MET; lower than 7 means NOT MET.

Here are 2 molecules together with their reported answers.
Cc1cc(C)cc(S(=O)(=O)c2c(C(=O)NCCCCNS(=O)(=O)c3ccc(C#N)cc3)[nH]c3ccc(Cl)cc23)c1	MET
Cc1cc(C)cc(S(=O)(=O)c2c(C(=O)NCCCNS(=O)(=O)c3ccc(C#N)cc3)[nH]c3ccc(Cl)cc23)c1	NOT MET

Proceed to the following item.
Entry `Cc1cc(C)cc(S(=O)(=O)c2c(C(=O)NCCCNS(=O)(=O)c3cccc(F)c3)[nH]c3ccc(Cl)cc23)c1` : is its pEC50 no less than 7? NOT MET

###

Test: In vivo pharmacokinetics study in rats
Details: male, Sprague-Dawley, rat, plasma, iv, 2 mg/kg
READOUT_LABEL: AUC(0-t) (ng·h/mL)
Numeric answer only, unit ng·h/mL assumed.

Give the measured AUC(0-t) of Cc1cc(C)cc(S(=O)(=O)c2c(C(=O)NCCCCNS(=O)(=O)c3cccnc3)[nH]c3ccc(Cl)cc23)c1 [R10L4] . 472

###

Assay: Cytotoxicity in mock-infected MT-4 cells, MTT method
Assay type: cell-based
Settings: human, mock-infected MT-4 cells, CC50, mock-infected MT-4 cells
Binary call on CC50 at 5 days with cut-off 100 µM: strictly below means rule met, and equality or higher means rule not met.

Consider the worked cases shown below.
Cc1cc(C)cc(S(=O)(=O)c2c(C(=O)NCCCNS(=O)(=O)c3cccc(F)c3)[nH]c3ccc(Cl)cc23)c1 [R12L3]	rule not met
Cc1cc(C)cc(S(=O)(=O)c2c(C(=O)NCCCCNS(=O)(=O)c3cccs3)[nH]c3ccc(Cl)cc23)c1 [R8L4]	rule met
COc1ccc(S(=O)(=O)NCCCCCNC(=O)c2[nH]c3ccc(Cl)cc3c2S(=O)(=O)c2cc(C)cc(C)c2)cc1 [R2L5]	rule not met
Cc1cc(C)cc(S(=O)(=O)c2c(C(=O)NCCCNS(=O)(=O)c3ccc(C#N)cc3)[nH]c3ccc(Cl)cc23)c1 [R5L3]	rule met
Cc1cc(C)cc(S(=O)(=O)c2c(C(=O)NCCCCCNS(=O)(=O)c3cccnc3)[nH]c3ccc(Cl)cc23)c1 [R10L5]	rule met
Cc1cc(C)cc(S(=O)(=O)c2c(C(=O)NCCNS(=O)(=O)c3ccc([N+](=O)[O-])cc3)[nH]c3ccc(Cl)cc23)c1 [R3L2]	rule not met

Here's an entry: Cc1cc(C)cc(S(=O)(=O)c2c(C(=O)NCCCNS(=O)(=O)c3ccc(Cl)cc3)[nH]c3ccc(Cl)cc23)c1 [R7L3] . Is its CC50 at 5 days below 100 µM? rule not met

Again, but for Cc1cc(C)cc(S(=O)(=O)c2c(C(=O)NCCCNS(=O)(=O)c3ccc(Br)cc3)[nH]c3ccc(Cl)cc23)c1 [R6L3] rule met

Param item: Cc1ccc(S(=O)(=O)NCCCCCNC(=O)c2[nH]c3ccc(Cl)cc3c2S(=O)(=O)c2cc(C)cc(C)c2)cc1 [R1L5] rule not met

Param item: Cc1cc(C)cc(S(=O)(=O)c2c(C(=O)NCCNS(=O)(=O)c3ccc(C#N)cc3)[nH]c3ccc(Cl)cc23)c1 [R5L2] rule met

Here is the next molecule: Cc1cc(C)cc(S(=O)(=O)c2c(C(=O)NCCCCNS(=O)(=O)c3ccc(Cl)cc3)[nH]c3ccc(Cl)cc23)c1 [R7L4] rule met

Continue with Cc1cc(C)cc(S(=O)(=O)c2c(C(=O)NCCNS(=O)(=O)c3ccc(Br)cc3)[nH]c3ccc(Cl)cc23)c1 [R6L2] rule not met

Likewise for Cc1cc(C)cc(S(=O)(=O)c2c(C(=O)NCCCNS(=O)(=O)c3ccc(F)cc3)[nH]c3ccc(Cl)cc23)c1 [R4L3] ? rule met

Note, next up: Cc1cc(C)cc(S(=O)(=O)c2c(C(=O)NCCNS(=O)(=O)c3ccccc3F)[nH]c3ccc(Cl)cc23)c1 [R11L2] rule not met

Do the same for Cc1cc(C)cc(S(=O)(=O)c2c(C(=O)NCCCCCNS(=O)(=O)c3ccc(F)cc3)[nH]c3ccc(Cl)cc23)c1 [R4L5] please rule not met

###

Assay: In vivo pharmacokinetics study in rats
Conditions: male, Sprague-Dawley, rat, plasma, po, 10 mg/kg
READOUT_LABEL: half-life (h)
# output: bare number, implied unit h

Entry `Cc1cc(C)cc(S(=O)(=O)c2c(C(=O)NCCCCNS(=O)(=O)c3cccnc3)[nH]c3ccc(Cl)cc23)c1` has what half-life? 1.78

###

Tested on: HIV-1 mutant strain L100I
Test: microbe, parasite or virus in culture
Type: cell-based
Conditions: Human immunodeficiency virus 1, MT4, read-out: EC50 L100I
# pEC50 listing for each entry below
Note: pEC50 values are expressed as the negative base-10 logarithm of concentration in M.

Consider the following illustrative entries.
Cc1cc(C)cc(S(=O)(=O)c2c(C(=O)NCCCNS(=O)(=O)c3ccc([N+](=O)[O-])cc3)[nH]c3ccc(Cl)cc23)c1	6.46
Cc1cc(C)cc(S(=O)(=O)c2c(C(=O)NCCCCCNS(=O)(=O)c3ccc(Br)cc3)[nH]c3ccc(Cl)cc23)c1	6.92

Entry under review: `Cc1cc(C)cc(S(=O)(=O)c2c(C(=O)NCCCCCNS(=O)(=O)c3ccccc3)[nH]c3ccc(Cl)cc23)c1` . Reported pEC50? 7.36

Query `Cc1ccc(S(=O)(=O)NCCCCNC(=O)c2[nH]c3ccc(Cl)cc3c2S(=O)(=O)c2cc(C)cc(C)c2)cc1` next 6.80

###

Test system: HIV-1 WT strain (IIIB)
Experiment: Anti-HIV activity against WT HIV-1
Details: WT HIV-1 IIIB
The molecules listed here are annotated with their SI IIIB (CC50/EC50 ratio).
Number only, no unit.

Example cases with answers are listed next.
Cc1cc(C)cc(S(=O)(=O)c2c(C(=O)NCCCNS(=O)(=O)c3ccc(Br)cc3)[nH]c3ccc(Cl)cc23)c1	645
Cc1cc(C)cc(S(=O)(=O)c2c(C(=O)NCCCCNS(=O)(=O)c3ccc(C#N)cc3)[nH]c3ccc(Cl)cc23)c1	279
Cc1ccc(S(=O)(=O)NCCCNC(=O)c2[nH]c3ccc(Cl)cc3c2S(=O)(=O)c2cc(C)cc(C)c2)cc1	4586

Dear colleague, I am looking for the recorded SI IIIB (CC50/EC50 ratio) of the following molecule: `Cc1cc(C)cc(S(=O)(=O)c2c(C(=O)NCCCCCNS(=O)(=O)c3cccnc3)[nH]c3ccc(Cl)cc23)c1` 5513

Now give it for `Cc1cc(C)cc(S(=O)(=O)c2c(C(=O)NCCCCCNS(=O)(=O)c3ccccc3)[nH]c3ccc(Cl)cc23)c1` too. 8814

###

Each item that follows carries a reported CC50 at 5 days.
Assay: Cytotoxicity in mock-infected MT-4 cells, MTT method
Format: cell-based
Conditions: human, mock-infected MT-4 cells, CC50, mock-infected MT-4 cells
Please state the figure in µM; there is no need to write the unit.

A selection of reference data follows.
Cc1cc(C)cc(S(=O)(=O)c2c(C(=O)NCCNS(=O)(=O)c3ccc(-c4ccccc4)cc3)[nH]c3ccc(Cl)cc23)c1	64.3
Cc1cc(C)cc(S(=O)(=O)c2c(C(=O)NCCCNS(=O)(=O)c3cccs3)[nH]c3ccc(Cl)cc23)c1	121

What CC50 at 5 days value was documented for this molecule, `Cc1ccc(S(=O)(=O)NCCCCNC(=O)c2[nH]c3ccc(Cl)cc3c2S(=O)(=O)c2cc(C)cc(C)c2)cc1` ? 103

Now consider `Cc1cc(C)cc(S(=O)(=O)c2c(C(=O)NCCCCNS(=O)(=O)c3ccccc3)[nH]c3ccc(Cl)cc23)c1` and answer again. 113

Again, but for `Cc1cc(C)cc(S(=O)(=O)c2c(C(=O)NCCNS(=O)(=O)c3cccs3)[nH]c3ccc(Cl)cc23)c1` 161
